Plasminogen (Homo sapiens, UniProt P00747) IC50, compiled from various sources.

>  <COMPOUND>
N=C(N)N1CCCC(C[C@@H](C=O)NC(=O)CN2CCCC[C@H](NS(=O)(=O)Cc3ccccc3)C2=O)C1 (single isomer, unassigned)

>  <TGT>
Plasminogen (Homo sapiens, UniProt P00747)

>  <IC50>
> 2.5 µM

$$$$

*Q* Give recorded IC50 with Plasminogen (Homo sapiens, UniProt P00747) for the following compound: Cc1nc(N)ccc1CNC(=O)CN1CCCC[C@H](NS(=O)(=O)c2ccc3c(c2)CCO3)C1=O
*A* ≥ 2.5 µM

*Q* Could you share what IC50 was measured for Cc1nc(N)ccc1CNC(=O)Cn1c(C)cnc(NNS(=O)(=O)c2ccccc2)c1=O , tested on Plasminogen (Homo sapiens, UniProt P00747)?
*A* ≥ 100 µM

*Q* Query for Plasminogen (Homo sapiens, UniProt P00747): what IC50 does the record show for Cc1cc(C)c(C(=O)N[C@@H](Cc2cccc(C(F)(F)F)c2)C(=O)NCc2ccc(N)nc2C)[nH]1 ?
*A* > 10 µM

*Q* Can you look up IC50 on Plasminogen (Homo sapiens, UniProt P00747) for N=C1O[C@@H](CNC(=O)c2ccc(Cl)s2)CN1c1ccc(N2CCOCC2=O)cc1 ?
*A* > 10 µM

*Q* Query for Plasminogen (Homo sapiens, UniProt P00747): what IC50 does the record show for N=C(N)c1ccc(CNC(=O)[C@@H]2CCN2C(=O)[C@@H](CO)NS(=O)(=O)Cc2ccccc2)cc1 ?
*A* > 2.5 µM

*Q* Give Plasminogen (Homo sapiens, UniProt P00747) IC50 for CN1CCC[C@@H]1C(=O)N[C@@H](Cc1ccc(F)c(F)c1)C(=O)NCc1ccc(N)nc1
*A* > 10 µM

*Q* Give Plasminogen (Homo sapiens, UniProt P00747) IC50 for CN(C)[C@H](Cc1ccccc1)C(=O)N[C@@H](Cc1ccc(Cl)c(Cl)c1)C(=O)NCc1ccc(N)nc1
*A* > 10 µM

*Q* Notebook: pull reported IC50 for Plasminogen (Homo sapiens, UniProt P00747), entry C[C@H](NC(=O)[C@@H](CO)NS(=O)(=O)Cc1ccccc1)C(=O)NCc1ccc(C(=N)N)s1
*A* > 2.5 µM

*Q* Find IC50 (Plasminogen (Homo sapiens, UniProt P00747)) for the entry C[C@H](NC(=O)[C@@H](CO)NS(=O)(=O)Cc1ccccc1)C(=O)NCc1ccc(NC(=N)NC(=O)OC(C)(C)C)cc1
*A* > 2.5 µM

*Q* Item Cc1nc(N)ccc1CNC(=O)Cn1c(C)cnc(NN(CCc2ccccc2)CCc2ccccc2)c1=O with Plasminogen (Homo sapiens, UniProt P00747) - IC50?
*A* ≥ 100 µM

*Q* Notebook: pull reported IC50 for Plasminogen (Homo sapiens, UniProt P00747), entry COCc1nn(Cc2ccc(Cn3ccccc3=O)cc2)cc1C(=O)NCc1c(-n2cnnn2)ccc(OC)c1F
*A* 31.2 µM

*Q* Item Nc1ccc(CNC(=O)[C@H](Cc2ccc(Cl)c(Cl)c2)NC(=O)[C@H]2CCCN2)cn1 with Plasminogen (Homo sapiens, UniProt P00747) - IC50?
*A* > 10 µM

*Q* Recorded IC50 for CC(=N)N1CCC(Oc2ccc3c(c2)/C(=C/c2ccc(Cl)cc2)C(=O)N3Cc2ccc3ccc(C(=N)N)cc3c2)CC1 with Plasminogen (Homo sapiens, UniProt P00747), please?
*A* 0.309 µM

*Q* Recall the recorded IC50 for N=C(N)c1ccc2cc(OC(=O)c3ccc(S(N)(=O)=O)cc3)ccc2c1 with Plasminogen (Homo sapiens, UniProt P00747) and state it.
*A* 2 µM

*Q* Find the measured IC50: item CCCCS(=O)(=O)N[C@H](CO)C(=O)N[C@@H](C)C(=O)NCc1ccc(C(=N)N)cc1 , target or system Plasminogen (Homo sapiens, UniProt P00747).
*A* > 2.5 µM

*Q* Reported IC50 for Plasminogen (Homo sapiens, UniProt P00747), given CCN(CC)[C@@H](C)C(=O)N[C@@H](CC1CCCCC1)C(=O)NCc1ccc(N)nc1 ?
*A* > 10 µM
